assay: Quantitative High-Throughput drug screen in 47 multiple myeloma cell lines against the NCATS MIPE library collection: EJM_DSMZ cell viability assay (AID 1918926; note: nearly all actives have a fitted effect of over 30% in size); conditions: EJM myeloma cell viability, CellTiter-Glo ATP, 48 h; series mostly up to 45.8 µM
Records with an inconclusive call do not appear. The source made the active and inactive calls. Calls come from the whole dose curve; as a rule, active = well fitted cell-killing curve with a large enough effect; inconclusive = small, poorly fitted or top-dose-only effect, or effect the other way; inactive = no such curve, though single readings can be large or run the other way.
// classify into 1.0 for active, 0.0 for inactive

compound=CC[C@]12C=CCN3CC[C@@]4(c5cc([C@@]6(C(=O)OC)C[C@H]7C[C@@H](C(C)(F)F)CN(Cc8c6[nH]c6ccccc86)C7)c(OC)cc5N(C)[C@H]4[C@@](O)(C(=O)OC)[C@H]1OC(C)=O)[C@@H]32 category_label=1.0
compound=CC1(C)O[C@@H]2C[C@H]3[C@@H]4CCC5=CC(=O)C=C[C@]5(C)[C@@H]4[C@@H](O)C[C@]3(C)[C@]2(C(=O)CO)O1 category_label=0.0
compound=COc1ccnc2[nH]cc(C(=O)C(=O)N3CCN(C(=O)c4ccccc4)C[C@@H]3C)c12 category_label=0.0
compound=COc1cccc2c1C(=O)c1c(O)c3c(c(O)c1C2=O)C[C@@](O)(C(C)=O)C[C@H]3O[C@H]1C[C@H](N)[C@H](O)[C@H](C)O1 category_label=1.0

Query: recorded result category for `CCc1nc(-c2cccc(C)c2)c(-c2ccnc(NC(=O)c3ccccc3)c2)s1` in this test 1.0

Moving on to the next compound: `NC(=O)c1ncn([C@@H]2O[C@H](CO)[C@@H](O)[C@@H]2O)c1N` 0.0

Moving on to the next compound: `c1coc(CNc2ncnc3nc[nH]c23)c1` 0.0

Moving on to the next compound: `C=CC(=O)Nc1ccc2ncnc(Nc3ccc(OCc4cccc(F)c4)c(Cl)c3)c2c1` 1.0

Moving on to the next compound: `CC(=O)OCC(=O)[C@@]12N=C(C)O[C@H]1C[C@H]1[C@@H]3CCC4=CC(=O)C=C[C@]4(C)[C@@H]3[C@@H](O)C[C@@]12C` 0.0

---

experiment: qHTS of pediatric cancer cell lines to identify multiple opportunities for drug repurposing: Primary screen for U-2 OS cells (AID 1347096); settings: U-2 OS viability, CellTiter-Glo luminescence, 48 h; series mostly up to 46 µM; note: nearly all actives have a fitted effect of over 50% in size
Results filed as inconclusive are left out. Calls of active or inactive are those of the source. Calls come from the whole dose curve; as a rule, active = well fitted cell-killing curve with a large enough effect; inconclusive = small, poorly fitted or top-dose-only effect; inactive = flat fitted curve, though single readings scatter.
// classify into active, inactive

Worked set:
smiles_data=CON=C(C(=O)N[C@@H]1C(=O)N2C(C(=O)O)=C(Cn3ccc(=N)n3CCO)CS[C@H]12)c1csc(N)n1 category_label=inactive
smiles_data=C[C@@H]1[C@H](C)CC[C@]2(C(=O)O)CC[C@]3(C)C(=CC[C@@H]4[C@@]5(C)C[C@@H](O)[C@H](O)[C@@](C)(CO)[C@H]5CC[C@]43C)[C@@H]12 category_label=inactive
smiles_data=COC(=O)[C@@H]1CC2=CC(=O)CC[C@]2(C)[C@@]23O[C@@H]2C[C@@]2(C)[C@H](CC[C@@]24CCC(=O)O4)[C@@H]13 category_label=inactive
smiles_data=CCCc1nc(C(C)(C)O)c(C(=O)O)n1Cc1ccc(-c2ccccc2-c2nn[nH]n2)cc1 category_label=inactive
smiles_data=NC(=O)Nc1cc(-c2ccc(CN3CCOCC3)cc2)sc1C(N)=O category_label=active

Query: recorded result category for `CC(C)Oc1ccc(C(=O)N[C@H](CNC(=O)CN(C)C)Cc2ccc(-c3cn4cccc([C@H](C)O)c4n3)cc2)cc1Cl` in this test inactive

Moving on to the next compound: `CCn1c(=O)c2c(nc(C=Cc3ccc(OC)c(OC)c3)n2C)n(CC)c1=O` inactive

Moving on to the next compound: `N#CC(=Cc1ccc(O)c(O)c1)C(=O)NCc1ccccc1` inactive

---

assay: qHTS of pediatric cancer cell lines to identify multiple opportunities for drug repurposing: Primary screen for NB-EBc1 cells (AID 1347095); details: NB-EBc1 neuroblastoma viability, CellTiter-Glo luminescence, 48 h; series mostly up to 46 µM
Inconclusive results are not listed. Calls of active or inactive are those of the source. Calls follow the shape of the dose curve; as a rule, active = well fitted cell-killing curve with a large enough effect; inconclusive = small, poorly fitted or top-dose-only effect; inactive = no such curve, though single readings can be large or run the other way.
// classify into 1 = active, 0 = inactive

compound=COc1ccc(C[C@@H](C)[C@@H](C)Cc2ccc(OC)c(OC)c2)cc1OC category_label=1
compound="C=C1CCC2[C@](C)(CO)C(O)CC[C@]2(C)C1CC=C1C(=O)OCC1O (some centres undefined)" category_label=0
compound=CC(=O)O[C@H]1C[C@@H]2CC[C@H]3[C@H]4C[C@H]([N+]5(C)CCCCC5)[C@@H](OC(C)=O)[C@@]4(C)CC[C@@H]3[C@@]2(C)C[C@H]1N1CCCCC1 category_label=0
compound=CCc1ccc(C(=O)Nc2cc(CN3CCN(C)CC3)cc(C(F)(F)F)c2)cc1C#Cc1cnc2ccnn2c1 category_label=1
compound=CC(=O)NCC(=O)N1[C@H]2CC[C@H]1c1cc(Nc3ncc(C(F)(F)F)c(NC4CCC4)n3)ccc12 category_label=1
compound=C#Cc1cccc(Nc2ncnc3cc(OCCOC)c(OCCO)cc23)c1 category_label=1
compound=C[C@@H]1[C@H](C)CC[C@]2(C(=O)O)CC[C@]3(C)C(=CC[C@@H]4[C@@]5(C)C[C@@H](O)[C@H](O)[C@@](C)(CO)[C@H]5CC[C@]43C)[C@@H]12 category_label=0
compound=COc1cc(OC)cc(-c2ccc3ncc4ccc(=O)n(-c5ccc(N6CCNCC6)c(C(F)(F)F)c5)c4c3c2)c1 category_label=1

# next compound below
Query: recorded result category for `CN1CCCN(C(=O)c2cccc(-c3ccc(C=C4C(=O)Nc5ccc(Cl)cc54)o3)c2)CC1` in this test 1

---

assay: qHTS of pediatric cancer cell lines to identify multiple opportunities for drug repurposing: Primary screen for BT-12 cells (AID 1347101); conditions: BT-12 viability, CellTiter-Glo luminescence, 48 h; series mostly up to 57.3 µM; note: nearly all actives have a fitted effect of over 25% in size
Results filed as inconclusive are left out. Activity calls are given as the source filed them. Calls follow the shape of the dose curve; as a rule, active = well fitted cell-killing curve with a large enough effect; inconclusive = small, poorly fitted or top-dose-only effect; inactive = flat fitted curve, though single readings scatter.
// classify into true = active, false = inactive

compound="C#CCC(Cc1cnc2nc(N)nc(N)c2n1)c1ccc(C(=O)N[C@@H](CCC(=O)O)C(=O)O)cc1 (some centres not stated)" category_label=true

Query: recorded result category for `c1cc(CN2CCCNCCNCCCNCC2)ccc1CN1CCCNCCNCCCNCC1` in this test false

Moving on to the next compound: CCC(C(=O)O)C1CCC(C)C(C(C)C(O)C(C)C(=O)C(CC)C2OC3(C=CC(O)[C@@]4(CC[C@](C)(C5CC[C@@](O)(CC)C(C)O5)O4)O3)C(C)CC2C)O1 (some centres not stated) true

Moving on to the next compound: `CCCCC(=O)O[C@]1(C(=O)CO)[C@@H](C)C[C@H]2[C@@H]3CCC4=CC(=O)C=C[C@]4(C)[C@@]3(F)[C@@H](O)C[C@@]21C` false

Moving on to the next compound: `CC1(C)O[C@@H]2C[C@H]3[C@@H]4CCC5=CC(=O)C=C[C@]5(C)[C@@H]4[C@@H](O)C[C@]3(C)[C@]2(C(=O)CO)O1` false

Moving on to the next compound: `CC(C=CC=C(C)C=CC1=C(C)CCCC1(C)C)=CC=CC=C(C)C=CC=C(C)C=CC1=C(C)CCCC1(C)C` false

Moving on to the next compound: `C[C@H]1COc2c(N3CCN(C)CC3)c(F)cc3c(=O)c(C(=O)O)cn1c23` false

Moving on to the next compound: `CCCCCCCCCCCCCCCC(=O)OC[C@@H](NC(=O)C(Cl)Cl)[C@H](O)c1ccc([N+](=O)[O-])cc1` false

Moving on to the next compound: `CCCc1nc(C(C)(C)O)c(C(=O)O)n1Cc1ccc(-c2ccccc2-c2nn[nH]n2)cc1` false

Moving on to the next compound: `O=C(O)c1ccc(Nc2ncc3c(n2)-c2ccc(Cl)cc2C(c2c(F)cccc2F)=NC3)cc1` false

Moving on to the next compound: `CC1(C)CC(O)CC(C)(C)N1[O]` false

Moving on to the next compound: `CC(=O)OC[C@@H]1O[C@@H](n2ccc(=O)[nH]c2=O)[C@H](OC(C)=O)[C@H]1OC(C)=O` false

Moving on to the next compound: C[C@@H]1CC[C@@]2(OC1)OC1CC3C4CC=C5CC(O)CCC5(C)C4CCC3(C)C1[C@@H]2C (some centres not stated) false

Moving on to the next compound: `CC[C@H](CC[C@@H](C)[C@H]1CC[C@H]2[C@@H]3CC=C4C[C@@H](O)CC[C@]4(C)[C@@H]3CC[C@]12C)C(C)C` false

Moving on to the next compound: `C[C@H](NC(=O)Cc1cc(F)cc(F)c1)C(=O)N[C@H](C(=O)OC(C)(C)C)c1ccccc1` false

Moving on to the next compound: `O=C1NCCc2[nH]c(-c3ccncc3)cc21` true

Moving on to the next compound: Nc1ccn(C2CO[C@H](CO)O2)c(=O)n1 (some centres not stated) false

---

tested on: astro; assay: Drug repurposing screens with cells derived from glioblastoma tumor samples (AID 1345199); details: viability, ATP luminescence, 48 h; series mostly up to 45.9 µM; note: nearly all actives have a fitted effect of over 40% in size
Records with an inconclusive call do not appear. The source made the active and inactive calls. The call rests on the fitted dose curve; in most records, active means well fitted inhibition curve with a large enough effect; inconclusive means small, poorly fitted or top-dose-only effect; inactive means flat fitted curve, though single readings scatter.
// classify into active, inactive

molecule=Nc1ccn(C[C@@H](CO)OCP(=O)(O)O)c(=O)n1 study_system=astro category_label=inactive
molecule=O=C(O)C(=O)Nc1cccc(C2=NN=N[N]2)c1 study_system=astro category_label=inactive
molecule=CC1(C)[C@H](O[C@H]2O[C@H](C(=O)O)[C@@H](O)[C@H](O)[C@H]2O[C@@H]2O[C@H](C(=O)O)[C@@H](O)[C@H](O)[C@H]2O)CC[C@@]2(C)[C@H]1CC[C@]1(C)[C@H]2C(=O)C=C2[C@H]3C[C@@](C)(C(=O)O)CC[C@]3(C)CC[C@]21C study_system=astro category_label=inactive
molecule=CC(C)N1[N]C(=C2C=c3cc(O)ccc3=N2)c2c(N)ncnc21 study_system=astro category_label=active
molecule="C#CCC(Cc1cnc2nc(N)nc(N)c2n1)c1ccc(C(=O)N[C@@H](CCC(=O)O)C(=O)O)cc1 (stereo partly specified)" study_system=astro category_label=inactive

# next molecule below
Query: recorded result category for CCCCCCCN(CC)CCCC(O)c1ccc(NS(C)(=O)=O)cc1 (stereo unspecified) in this test inactive
